I'd be grateful if you could share measured BHET released for these entries.
- protocol.notes: BHET released, HPLC; higher = more BHET released; extreme values may be limits of the assay
- protocol.conditions: PET substrate: aFilm; 70 °C; pH 5.5; 24 h
Answers are plain numbers, in mM.

polymer.sequence	measure.unit	result.value
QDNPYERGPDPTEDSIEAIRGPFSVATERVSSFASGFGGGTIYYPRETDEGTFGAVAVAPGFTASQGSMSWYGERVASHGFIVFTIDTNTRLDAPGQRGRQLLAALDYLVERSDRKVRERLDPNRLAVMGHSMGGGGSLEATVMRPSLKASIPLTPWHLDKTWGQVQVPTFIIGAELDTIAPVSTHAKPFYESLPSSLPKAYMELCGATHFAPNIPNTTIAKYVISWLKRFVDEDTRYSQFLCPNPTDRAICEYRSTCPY [Cut190*SS]	mM	0

Here's the next entry for you.
Q. // Input: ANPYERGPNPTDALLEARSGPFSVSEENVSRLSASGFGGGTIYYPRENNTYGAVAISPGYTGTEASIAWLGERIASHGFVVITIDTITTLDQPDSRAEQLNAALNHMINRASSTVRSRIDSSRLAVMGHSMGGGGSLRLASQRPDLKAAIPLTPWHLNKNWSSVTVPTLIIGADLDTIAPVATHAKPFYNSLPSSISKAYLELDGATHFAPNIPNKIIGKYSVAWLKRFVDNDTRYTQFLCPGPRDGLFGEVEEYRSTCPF [TfCut2] . Output its BHET released only.
A. 0

Origin of the recorded values: the supplement of paper PMC11196671
